src = patent US20090156577A1

MIC values by entry
Tested on: pathogenic bacteria
protocol summary: MIC by microdilution broth method (NCCLS M7-A4), in vitro antibacterial activity
Type: cell-based
condition: Streptococcus pneumoniae, Organism C: fluoroquinolone-resistant clinical isolate of Streptococcus pneumoniae (QRDR amino acid substitutions)
endpoint name: MIC

{"molecule": "NC/C(F)=C1/COCCN(c2cc3c(cc2F)c(=O)c(C(=O)O)cn3C2CC2)C1 [Compound 503]", "endpoint name": "MIC", "obs value": "> 16 µg/mL"}
{"molecule": "COc1c(N2CCC/C(=C(/F)CN)C2)c(F)cc2c(=O)c(C(=O)O)cn(C3CC3)c12 [Compound 388]", "endpoint name": "MIC", "obs value": "8 µg/mL"}
{"molecule": "COc1c(N2CCC(=C(Cl)CN(C)C)CC2)c(F)cc2c(=O)c(C(=O)O)cn(C3CC3)c12 [Compound 191]", "endpoint name": "MIC", "obs value": "8 µg/mL"}
{"molecule": "COc1c(N2CCOC/C(=C(/F)CN)C2)c(F)cc2c(=O)c(C(=O)O)cn(C3CC3)c12 [Compound 508]", "endpoint name": "MIC", "obs value": "> 16 µg/mL"}
{"molecule": "COc1c(N2CC(=C(C)CN)C2)c(F)cc2c(=O)c(C(=O)O)cn([C@@H]3C[C@@H]3F)c12 [Compound 368]", "endpoint name": "MIC", "obs value": "> 16 µg/mL"}
{"molecule": "NC/C(Cl)=C1/CCCN(c2c(F)cc3c(=O)c(C(=O)O)cn(-c4nc(N)c(F)cc4F)c3c2Cl)C1 [Compound 412]", "endpoint name": "MIC", "obs value": "> 16 µg/mL"}
{"molecule": "COc1c(N2CCC(=C(F)CCN)CC2)c(F)cc2c(=O)c(C(=O)O)cn(C3CC3)c12 [Compound 467]", "endpoint name": "MIC", "obs value": "4 µg/mL"}
{"molecule": "C[C@H]1CN(c2nc3c(cc2F)c(=O)c(C(=O)O)cn3C2CC2)C/C(=C(/F)CN)CO1 [Compound 499]", "endpoint name": "MIC", "obs value": "> 16 µg/mL"}
{"molecule": "COc1c(N2CCC(=C(C)CN)CC2)c(F)cc2c(=O)c(C(=O)O)cn(C3CC3)c12 [Compound 6]", "endpoint name": "MIC", "obs value": "0.5 µg/mL"}
{"molecule": "CC(CN)=C1CN(c2c(F)cc3c(=O)c(C(=O)O)cn4c3c2OC[C@@H]4C)C1 [Compound 366]", "endpoint name": "MIC", "obs value": "> 16 µg/mL"}
{"molecule": "COc1c(N2CCOC/C(=C(\\F)CN)C2)c(F)cc2c(=O)c(C(=O)O)cn(C3CC3)c12 [Compound 507]", "endpoint name": "MIC", "obs value": "2 µg/mL"}
{"molecule": "CNCC(C)=C1CCN(c2nc3c(cc2F)c(=O)c(C(=O)O)cn3C2CC2)CC1 [Compound 79]", "endpoint name": "MIC", "obs value": "2 µg/mL"}
{"molecule": "NCC(Cl)=C1CN(c2nc3c(cc2F)c(=O)c(C(=O)O)cn3C2CC2)C1 [Compound 81]", "endpoint name": "MIC", "obs value": "2 µg/mL"}
{"molecule": "COc1c(N2CCC(=C(F)CN)C(C)(C)C2)c(F)cc2c(=O)c(C(=O)O)cn(C3CC3)c12 [Compound 78]", "endpoint name": "MIC", "obs value": "1 µg/mL"}
{"molecule": "COc1c(N2CCC(=C(CN)CCO)CC2)c(F)cc2c(=O)c(C(=O)O)cn(C3CC3)c12 [Compound 201]", "endpoint name": "MIC", "obs value": "2 µg/mL"}
{"molecule": "NC/C(F)=C1/CCCN(c2c(F)cc3c(=O)c(C(=O)O)cn(C4CC4)c3c2OCF)C1 [Compound 457]", "endpoint name": "MIC", "obs value": "8 µg/mL"}
{"molecule": "COc1c(N2CC/C(=C(/F)CN)C(C)C2)c(F)cc2c(=O)c(C(=O)O)cn(C3CC3)c12 (stereo not shown) [Compound 11]", "endpoint name": "MIC", "obs value": "0.5 µg/mL"}
{"molecule": "C/C(CN)=C1/CCCN(c2c(F)cc3c(=O)c(C(=O)O)cn(-c4nc(N)c(F)cc4F)c3c2Cl)C1 [Compound 423]", "endpoint name": "MIC", "obs value": "> 16 µg/mL"}
{"molecule": "NC/C(F)=C1\\CCCN(c2nc3c(cc2F)c(=O)c(C(=O)O)cn3C2CC2)CC1 [Compound 495]", "endpoint name": "MIC", "obs value": "2 µg/mL"}
{"molecule": "NCC(F)=C1CN(c2c(F)cc3c(=O)c(C(=O)O)cn(-c4nc(N)c(F)cc4F)c3c2Cl)C1 [Compound 269]", "endpoint name": "MIC", "obs value": "0.06 µg/mL"}
{"molecule": "NC/C(Cl)=C1\\CCCN(c2cc3c(cc2F)c(=O)c(C(=O)O)cn3C2CC2)CC1 [Compound 386]", "endpoint name": "MIC", "obs value": "8 µg/mL"}
{"molecule": "C[C@H]1COc2c(N3CC(=CCN)C3)c(F)cc3c(=O)c(C(=O)O)cn1c23 [Compound 365]", "endpoint name": "MIC", "obs value": "> 16 µg/mL"}
{"molecule": "O=C(O)c1cn(C2CC2)c2nc(N3CCC(=C(Cl)CN4CCCCC4)CC3)c(F)cc2c1=O [Compound 181]", "endpoint name": "MIC", "obs value": "> 16 µg/mL"}
{"molecule": "COc1c(N2CC(=C(Cl)CN)C2)ccc2c(=O)c(C(=O)O)cn(C3CC3)c12 [Compound 209]", "endpoint name": "MIC", "obs value": "8 µg/mL"}
{"molecule": "O=C(O)c1cn(C2CC2)c2cc(N3CCC(=C(Cl)CN4CCCCC4)CC3)c(F)cc2c1=O [Compound 300]", "endpoint name": "MIC", "obs value": "> 16 µg/mL"}
{"molecule": "O=C(O)c1cn(C2CC2)c2nc(N3CCC(=C(F)CO)CC3)c(F)cc2c1=O [Compound 172]", "endpoint name": "MIC", "obs value": "16 µg/mL"}
{"molecule": "NCC(Cl)=C1CCN1c1cc2c(cc1F)c(=O)c(C(=O)O)cn2C1CC1 [Compound 76]", "endpoint name": "MIC", "obs value": "1 µg/mL"}
{"molecule": "CC(C)NCC(F)=C1CCN(c2c(F)cc3c(=O)c(C(=O)O)cn(C4CC4)c3c2OC(F)F)CC1 [Compound 251]", "endpoint name": "MIC", "obs value": "16 µg/mL"}
{"molecule": "C[C@H]1COc2c(N3CCC/C(=C(\\F)CN)C3)c(F)cc3c(=O)c(C(=O)O)cn1c23 [Compound 398]", "endpoint name": "MIC", "obs value": "0.5 µg/mL"}
{"molecule": "N#CC(CN)=C1CCN(c2nc3c(cc2F)c(=O)c(C(=O)O)cn3C2CC2)CC1 [Compound 283]", "endpoint name": "MIC", "obs value": "4 µg/mL"}
{"molecule": "COc1c(N2CCC/C(=C(/Cl)CN)C2)c(F)cc2c(=O)c(C(=O)O)cn([C@@H]3C[C@@H]3F)c12 [Compound 449]", "endpoint name": "MIC", "obs value": "> 16 µg/mL"}
